test: Effect on intracellular GSH content at 250 uM in human macrophage-derived monocytes (MDMs); format: functional
quantity kind: GSH
Numeric answer plus unit only.

Worked set:
smi=NCCS reported_value=200%
smi=CC(=O)N[C@@H](CS)C(=O)O reported_value=200%
smi=CC(=O)N[C@@H](CS)C(=O)O.NCCS reported_value=190%

Consider the record given below.
Query string: Request the reported GSH associated with `CC(=O)N[C@@H](CS)C(=O)NCCSC(C)=O`
Result string: 480%

---

assay: Tested for cytotoxic concentration in human macrophage-derived monocytes (MDMs) at 24 hr treatment; assay type: cell-based
quantity kind: CC50 at 24 h

Query string: Which CC50 at 24 h value belongs to `CC(=O)N[C@@H](CS)C(=O)NCCSC(C)=O` ?
Result string: > 5 mM
